Provide the recorded TGI for the entries that follow.
- Test system: HOP-92 NSCLC
- assay procedure: NCI tumour cell line growth inhibition, 48 h

{"compound": "COc1cc(C2c3cc4c(cc3OC(Nc3ccccc3)C2C)OCO4)cc(OC)c1O (centres undefined)", "system tested": "HOP-92 NSCLC", "TGI": "48.7 µM"}
{"compound": "O=C(c1ccccc1)n1cc(-c2ccccc2)c2c(=O)[nH]cnc21", "system tested": "HOP-92 NSCLC", "TGI": "> 100 µM"}
{"compound": "CNC(=S)N/N=C(\\C(=N/NC(=S)NC)c1ccccn1)c1ccccn1", "system tested": "HOP-92 NSCLC", "TGI": "> 100 µM"}
{"compound": "ON(Cc1ccccc1)C(=S)c1ccccc1", "system tested": "HOP-92 NSCLC", "TGI": "> 100 µM"}
{"compound": "CC1(C)C(=O)c2ccccc2OC1N1CCN(C2Oc3ccccc3C(=O)C2(C)C)CC1 (centres undefined)", "system tested": "HOP-92 NSCLC", "TGI": "> 100 µM"}
{"compound": "CC(=O)NC1C(OCc2ccccc2)OC(CO)C(O)C1OC(C)C(=O)N[C@@H](C)C(=O)N[C@H](CCC(=O)OCCNc1c2ccccc2nc2cccc([N+](=O)[O-])c12)C(N)=O (some centres undefined)", "system tested": "HOP-92 NSCLC", "TGI": "0.00616 µM"}

# map each compound to its TGI
1. Oc1ccc(Cl)cc1-c1cc(-c2ccccc2)nc(NCN2CCCCC2)n1
2. CC(=O)N1N=C(c2ccc(Nc3ccnc4cc(Cl)ccc34)cc2)CC1c1ccc(Cl)cc1 (centres undefined)
3. O=C(CCC(=O)Nc1ccc(Cl)c(Cl)c1)CC(=O)c1ccc(F)cc1

> 100 µM
> 100 µM
> 100 µM

###

- Test system: HS 578T breast
- assay procedure: NCI tumour cell line growth inhibition, 48 h
property: TGI

{"molecule": "CC(=O)c1c(CN(C)c2ccccc2)n([O-])c2ccccc2[n+]1=O", "system tested": "HS 578T breast", "TGI": "> 100 µM"}
{"molecule": "CCOC(=O)C(CC(C)C)NC(=O)CSc1nnc(COc2ccc(Cl)cc2)n1-c1ccccc1 (stereo not drawn)", "system tested": "HS 578T breast", "TGI": "60.9 µM"}
{"molecule": "NNc1nncc2[nH]cnc12", "system tested": "HS 578T breast", "TGI": "> 100 µM"}
{"molecule": "Nc1ccccc1.[C-]#[O+].[C-]#[O+].[C-]#[O+].[C-]#[O+].[C-]#[O+].[Cr]", "system tested": "HS 578T breast", "TGI": "> 10 µM"}
{"molecule": "CC(=O)OCC1OC(OCCCCCCO)C(OC(C)=O)C(OC(C)=O)C1OC(C)=O (stereo not drawn)", "system tested": "HS 578T breast", "TGI": "> 100 µM"}
{"molecule": "CSc1c(C#N)c(N)nc2c(N=Nc3ccc(Br)cc3)c(N)nn12", "system tested": "HS 578T breast", "TGI": "5.81 µM"}
{"molecule": "CC(C)(C)c1ccc(OC(=O)Nc2ccc(O)c(C(=O)O)c2)cc1", "system tested": "HS 578T breast", "TGI": "> 100 µM"}

As a next step, examine the molecule that follows.
Look up and report measured TGI (HS 578T breast) for the following molecule: "COc1cc(OC)c2nccc(NCCCN(C)C)c2c1[N+](=O)[O-]" > 100 µM
